Values were extracted from ChEMBL document CHEMBL3046240.

logP values by entry
Experimental Readout: logP

INSERT INTO assay_data (compound, experimental_readout, experimental_value) VALUES
  ('CNC(=O)Oc1cccc2ccccc12', 'logP', 1.85),
  ('CN(C)C1CSSSC1.O=C(O)C(=O)O [THIOCYCLAM HYDROGEN OXALATE]', 'logP', -0.07),
  ('CCOC(=O)CC(SP(=S)(OC)OC)C(=O)OCC (centres undefined)', 'logP', 2.75),
  ('CCCCN(CCCC)SN(C)C(=O)Oc1cccc2c1OC(C)(C)C2', 'logP', 5.4),
  ('CNC(=O)ON=C(C)SC', 'logP', 0.093),
  ('CC(C)N1C(=O)N(c2ccccc2)CS/C1=N\C(C)(C)C', 'logP', 4.3),
  ('C/C(=N\C#N)N(C)Cc1ccc(Cl)nc1', 'logP', 0.8),
  ('CN(C)C(CSS(=O)(=O)c1ccccc1)CSS(=O)(=O)c1ccccc1', 'logP', 2.28),
  ('CNC(=O)Oc1cc(C)cc(C)c1', 'logP', 2.3),
  ('COP(=O)(OC)OC=C(Cl)Cl', 'logP', 1.9),
  ('CS/C(C)=N\OC(=O)N(C)SN(C)C(=O)O/N=C(\C)SC', 'logP', 1.62),
  ('COP(=S)(OC)Oc1ccc([N+](=O)[O-])c(C)c1', 'logP', 3.43),
  ('CCOC(=O)CCN(SN(C)C(=O)Oc1cccc2c1OC(C)(C)C2)C(C)C', 'logP', 4.22),
  ('CCC(C)c1ccccc1OC(=O)NC (centres undefined)', 'logP', 2.79);
